# experimental_target: 17-beta-hydroxysteroid dehydrogenase type 2 (Homo sapiens) (UniProt P37059)
# Sequence (P37059 whole entry): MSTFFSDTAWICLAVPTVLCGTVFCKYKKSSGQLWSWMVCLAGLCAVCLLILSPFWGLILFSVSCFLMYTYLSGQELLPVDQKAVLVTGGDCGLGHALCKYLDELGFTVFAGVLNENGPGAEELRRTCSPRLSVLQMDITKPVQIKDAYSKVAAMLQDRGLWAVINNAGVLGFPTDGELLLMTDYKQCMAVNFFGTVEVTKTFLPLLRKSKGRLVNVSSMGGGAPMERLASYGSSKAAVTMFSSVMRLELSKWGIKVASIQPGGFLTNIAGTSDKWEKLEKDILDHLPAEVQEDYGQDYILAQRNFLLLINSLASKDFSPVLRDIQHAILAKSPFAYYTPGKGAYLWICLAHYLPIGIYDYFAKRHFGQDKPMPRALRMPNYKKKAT
# protocol_summary: Inhibition of [3H]E2 binding to human recombinant 17beta-HSD2 expressed in baculovirus-infected Sf9 cells at 100 nM after 10 mins by fluid scintillation counting
Listed next: entries and their corresponding inhibition.
test_readout: inhibition (%)

> print(dat)
                                item.smiles  test.readout  readout.qualifier  assay.value
1  COc1ccc(-c2c(O)ccc3cc(-c4cccc(O)c4)ccc23)cn1    inhibition                  =           24
2  O=C(O)c1cccc(-c2c(O)ccc3cc(-c4cccc(O)c4)ccc23)c1    inhibition                  <           10
3  Oc1cccc(-c2ccc3c(-c4ccc(N5CCOCC5)cc4)c(O)ccc3c2)c1    inhibition                  =           12
4  Oc1cccc(-c2ccc3c(-c4ccncc4)c(O)ccc3c2)c1    inhibition                  =           12
5   Oc1cccc(-c2ccc3c(-c4ccoc4)c(O)ccc3c2)c1    inhibition                  =           61
6  Nc1cccc(-c2c(O)ccc3cc(-c4cccc(O)c4)ccc23)c1    inhibition                  <           10
